Attribution: patent US11173151B2

Biological target: human V1a receptor (Homo sapiens, UniProt P37288)
Construct: expressed in transfected cells; host or cells: CHO K1 (ATCC), also stably transfected with a modified aequorin
Sequence (P37288 whole entry): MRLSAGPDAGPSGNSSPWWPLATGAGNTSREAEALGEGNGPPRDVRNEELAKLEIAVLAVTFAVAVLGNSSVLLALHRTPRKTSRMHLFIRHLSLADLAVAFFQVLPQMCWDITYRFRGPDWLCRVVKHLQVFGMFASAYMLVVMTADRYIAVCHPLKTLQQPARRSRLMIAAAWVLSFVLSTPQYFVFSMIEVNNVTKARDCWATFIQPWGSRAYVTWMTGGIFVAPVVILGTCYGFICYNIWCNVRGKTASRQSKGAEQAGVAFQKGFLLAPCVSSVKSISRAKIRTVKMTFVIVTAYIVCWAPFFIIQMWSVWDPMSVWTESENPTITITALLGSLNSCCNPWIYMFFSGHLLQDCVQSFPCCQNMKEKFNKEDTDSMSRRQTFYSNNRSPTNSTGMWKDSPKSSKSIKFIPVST
Assay: Cellular in vitro assay for determining vasopressin receptor activity, V1a receptor cell line (CHO, aequorin luminescence)
Type: cell-based
Settings: selectivity ratio IC50 hV2 / IC50 hV1a
Procedure: B-1. Cellular In Vitro Assay for Determining Vasopressin Receptor Activity The identification of agonists and antagonists of the V1a and V2 vasopressin receptors from humans, rats and dogs as well as the quantification of the activity of the compounds of the invention is carried out using recombinant cell lines. […] The bioluminescence of the cell lines is detected using a suitable luminometer [Milligan G, Marshall F, Rees S, Trends in Pharmacological Sciences 17, 235-237 (1996)]. […]
experimental.endpoint: ratio IC50 hV2/hV1a
A bare number is all that is needed in reply.

- compound: "Cc1n[nH]c(C)c1C(=O)Nc1ncccc1-n1cnc(Cn2nc(-c3ccc(Cl)cc3)n(C[C@H](O)C(F)(F)F)c2=O)n1"
  quantitative.readout: 12.1
- compound: "Cc1nccn1CC(=O)Nc1ncccc1-n1cnc(Cn2nc(-c3ccc(Cl)cc3)n(C[C@H](O)C(F)(F)F)c2=O)n1"
  quantitative.readout: 140.6

-- ask Checklist item: ratio IC50 hV2/hV1a tested on human V1a receptor (Homo sapiens, UniProt P37288), entry CC1(C)CN(C(=O)c2ncccc2-n2cnc(Cn3nc(-c4ccc(Cl)cc4)n(C[C@@H](O)C(F)(F)F)c3=O)n2)CCO1 , value?
-- reply 533.3

-- ask Subsequent entry: O=c1n(Cc2ncn(-c3cccnc3NCCC(F)(F)F)n2)nc(-c2ccc(Cl)cc2)n1C[C@H](O)C(F)(F)F
-- reply 1.4

-- ask Consider next the compound CC1(NC(=O)c2cccc(C(F)(F)F)c2-n2cnc(Cn3nc(-c4ccc(Cl)cc4)n(C[C@H](O)C(F)(F)F)c3=O)n2)CC1 in the same way.
-- reply 80.9

-- ask Now try CC1(C(=O)Nc2ncccc2-n2cnc(Cn3nc(-c4ccc(Cl)cc4)n(C[C@H](O)C(F)(F)F)c3=O)n2)CCCCC1 .
-- reply 9.2

-- ask Now consider CN(C)[C@@H]1CCN(C(=O)c2ccccc2-n2cnc(Cn3nc(-c4ccc(Cl)cc4)n(C[C@H](O)C(F)(F)F)c3=O)n2)C1 .
-- reply 1612.6

-- ask Same question, O=C1NCC2(CN(C(=O)c3ccccc3-n3cnc(Cn4nc(-c5ccc(Cl)cc5)n(C[C@H](O)C(F)(F)F)c4=O)n3)C2)N1 this time
-- reply 23.5

----------
Biological target: human V2 receptor (Homo sapiens)
Construct: expressed in transfected cells; host or cells: CHO K1 (ATCC) expressing firefly luciferase under a CRE-responsive promoter
Test: Cellular in vitro assay for determining vasopressin receptor activity, V2 receptor cell line (CHO, CRE-luciferase)
Format: cell-based
Settings: CHO cell line transfected with human V2 receptor; [Arg8]-vasopressin at EC50 concentration, 3 hours; read-out: IC50 hV2
Below is a list of entries, each paired with its recorded IC50 value.
Lab book: enter the figure in nM, no units written.

Please review the following examples before continuing.
- smiles.text: "CC1(NC(=O)c2cccc(Cl)c2-n2cnc(Cn3nc(-c4ccc(Cl)cc4)n(C[C@H](O)C(F)(F)F)c3=O)n2)CC1"
  experimental.endpoint: "IC50"
  quantitative.readout: 1550
- smiles.text: "Cc1cc(NC(=O)c2ccccc2-n2cnc(Cn3nc(-c4ccc(Cl)cc4)n(C[C@H](O)C(F)(F)F)c3=O)n2)n(C)n1"
  experimental.endpoint: "IC50"
  quantitative.readout: 1340

Then this molecule:
-- ask What value of IC50 has been recorded for this entry: CN(CC(F)(F)F)C(=O)c1ccccc1-n1cnc(Cn2nc(-c3ccc(Cl)cc3)n(C[C@H](O)C(F)(F)F)c2=O)n1
-- reply 1750

----------
Listed here are molecules together with their documented ratio IC50 hV2/hV1a.
Biological target: human V1a receptor (Homo sapiens, UniProt P37288)
Construct: expressed in transfected cells; host or cells: CHO K1 (ATCC), also stably transfected with a modified aequorin
Assay: Cellular in vitro assay for determining vasopressin receptor activity, V1a receptor cell line (CHO, aequorin luminescence)
Assay type: cell-based
Settings: selectivity ratio IC50 hV2 / IC50 hV1a
Please reply with the value in numeric form only.

Sample records with ratio IC50 hV2/hV1a:
- molecule: "CC1CN(C(=O)c2ccccc2-n2cnc(Cn3nc(-c4ccc(Cl)cc4)n(C[C@H](O)C(F)(F)F)c3=O)n2)CCO1 (mixture of isomers)"
  study.system: "human V1a receptor (Homo sapiens, UniProt P37288)"
  ratio IC50 hV2/hV1a: 1239.7
- molecule: "COC1CCN(C(=O)c2ccccc2-n2cnc(Cn3nc(-c4ccc(Cl)cc4)n(C[C@H](O)C(F)(F)F)c3=O)n2)CC1"
  study.system: "human V1a receptor (Homo sapiens, UniProt P37288)"
  ratio IC50 hV2/hV1a: 241.4
- molecule: "O=C1CN(C(=O)c2ccccc2-n2cnc(Cn3nc(-c4ccc(Cl)cc4)n(C[C@H](O)C(F)(F)F)c3=O)n2)CCN1"
  study.system: "human V1a receptor (Homo sapiens, UniProt P37288)"
  ratio IC50 hV2/hV1a: 52.8
- molecule: "Cc1ccc(CNC(=O)c2ccccc2-n2cnc(Cn3nc(-c4ccc(Cl)cc4)n(C[C@H](O)C(F)(F)F)c3=O)n2)o1"
  study.system: "human V1a receptor (Homo sapiens, UniProt P37288)"
  ratio IC50 hV2/hV1a: 23.0

-- ask Could you tell me which ratio IC50 hV2/hV1a is on file for O=C(NCc1cccc(F)c1F)c1ccccc1-n1cnc(Cn2nc(-c3ccc(Cl)cc3)n(C[C@H](O)C(F)(F)F)c2=O)n1 ?
-- reply 26.9

-- ask Also need O=C1CN(C(=O)c2nc(Cn3nc(-c4ccc(Cl)cc4)n(C[C@H](O)C(F)(F)F)c3=O)nn2-c2cnccc2C(=O)N[C@H]2C[C@H]2F)CCN1 (racemic) , thanks.
-- reply 3.8

----------
Molecular target: human V2 receptor (Homo sapiens, UniProt P30518)
Construct: expressed in transfected cells; host or cells: CHO K1 (ATCC) expressing firefly luciferase under a CRE-responsive promoter
Sequence (P30518 whole entry): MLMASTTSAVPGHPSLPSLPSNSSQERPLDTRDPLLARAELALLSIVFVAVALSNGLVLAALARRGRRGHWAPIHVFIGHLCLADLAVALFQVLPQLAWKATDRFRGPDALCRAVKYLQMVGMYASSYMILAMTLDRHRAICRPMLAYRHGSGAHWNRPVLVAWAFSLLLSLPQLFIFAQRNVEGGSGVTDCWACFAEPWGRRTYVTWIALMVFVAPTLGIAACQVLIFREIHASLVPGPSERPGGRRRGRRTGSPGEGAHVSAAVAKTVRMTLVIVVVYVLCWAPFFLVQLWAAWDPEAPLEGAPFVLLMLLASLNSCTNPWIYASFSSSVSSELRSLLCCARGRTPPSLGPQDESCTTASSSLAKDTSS
Assay: Cellular in vitro assay for determining vasopressin receptor activity, V2 receptor cell line (CHO, CRE-luciferase)
Type: cell-based
Settings: CHO cell line transfected with human V2 receptor; [Arg8]-vasopressin at EC50 concentration, 3 hours; read-out: IC50 hV2
pIC50: −log10 of the molar value.
Where pIC50 equals or exceeds 6, the correct label is 1; where it does not, the label is 0.

- compound: "O=C1CCC(NC(=O)c2ccccc2-n2cnc(Cn3nc(-c4ccc(Cl)cc4)n(CC(O)C(F)(F)F)c3=O)n2)CN1 (single isomer, unassigned) [Example 192]"
  label.class: 0
- compound: "O=C(Nc1cccnc1-n1cnc(Cn2nc(-c3ccc(Cl)cc3)n(C[C@H](O)C(F)(F)F)c2=O)n1)C1CC1F (single isomer, unassigned) [Example 61]"
  label.class: 1
- compound: "O=C(Nc1cccnc1)c1ccccc1-n1cnc(Cn2nc(-c3ccc(Cl)cc3)n(C[C@H](O)C(F)(F)F)c2=O)n1 [Example 248]"
  label.class: 1
- compound: "O=C(CF)Nc1cccnc1-n1cnc(Cn2nc(-c3ccc(Cl)cc3)n(C[C@H](O)C(F)(F)F)c2=O)n1 [Example 39]"
  label.class: 1
- compound: "O=C(Nc1ncccc1-n1cnc(Cn2nc(-c3ccc(Cl)cc3)n(C[C@H](O)C(F)(F)F)c2=O)n1)[C@H]1C[C@@H]1F (racemic) [Example 84]"
  label.class: 0

-- ask Is it the case that NC(=O)[C@H]1CCN(C(=O)c2ccccc2-n2cnc(Cn3nc(-c4ccc(Cl)cc4)n(C[C@H](O)C(F)(F)F)c3=O)n2)C1 [Example 200] has pIC50 reaching or exceeding 6?
-- reply 0

-- ask Could you do the same for O=C(NCc1ccccn1)c1ccccc1-n1cnc(Cn2nc(-c3ccc(Cl)cc3)n(C[C@H](O)C(F)(F)F)c2=O)n1 [Example 301] , please?
-- reply 1

-- ask And the next one, C=CCN(C)C(=O)c1ccccc1-n1cnc(Cn2nc(-c3ccc(Cl)cc3)n(C[C@H](O)C(F)(F)F)c2=O)n1 [Example 294] ?
-- reply 0

----------
Target: human V2 receptor (Homo sapiens, UniProt P30518)
Construct: expressed in transfected cells; host or cells: CHO K1 (ATCC) expressing firefly luciferase under a CRE-responsive promoter
Test: Cellular in vitro assay for determining vasopressin receptor activity, V2 receptor cell line (CHO, CRE-luciferase)
Assay type: cell-based
Conditions: CHO cell line transfected with human V2 receptor; [Arg8]-vasopressin at EC50 concentration, 3 hours; read-out: IC50 hV2
Catalogue of IC50 readings, one per entry.
Your reply should be a number followed by the unit it is expressed in.

- compound: "O=C(NC1CC1F)c1ccccc1-n1cnc(Cn2nc(-c3ccc(Cl)cc3)n(C[C@H](O)C(F)(F)F)c2=O)n1 (mixture of isomers)"
  IC50: "155 nM"
- compound: "O=C(NN1CCOCC1)c1ccccc1-n1cnc(Cn2nc(-c3ccc(Cl)cc3)n(C[C@H](O)C(F)(F)F)c2=O)n1"
  IC50: "3300 nM"
- compound: "O=c1n(Cc2ncn(-c3cccnc3NCC(F)(F)F)n2)nc(-c2ccc(Cl)cc2)n1C[C@H](O)C(F)(F)F"
  IC50: "240 nM"
- compound: "O=C(NC1CC1F)c1cccc(Cl)c1-n1cnc(Cn2nc(-c3ccc(Cl)cc3)n(C[C@H](O)C(F)(F)F)c2=O)n1 (stereo partly drawn)"
  IC50: "1030 nM"
- compound: "O=C(NCC1CC1)c1cccc(Cl)c1-n1cnc(Cn2nc(-c3ccc(Cl)cc3)n(C[C@H](O)C(F)(F)F)c2=O)n1"
  IC50: "420 nM"

-- ask What does the data say about its IC50? Entry: CC1SCCN1C(=O)c1ccccc1-n1cnc(Cn2nc(-c3ccc(Cl)cc3)n(C[C@H](O)C(F)(F)F)c2=O)n1 (mixture of isomers)
-- reply 1440 nM

-- ask Now consider CN(C(=O)c1ccccc1-n1cnc(Cn2nc(-c3ccc(Cl)cc3)n(C[C@H](O)C(F)(F)F)c2=O)n1)C1CCCC1 and answer again.
-- reply 1150 nM

-- ask Try CC1CN(C(=O)c2cccc(Cl)c2-n2cnc(Cn3nc(-c4ccc(Cl)cc4)n(C[C@H](O)C(F)(F)F)c3=O)n2)CCO1 (mixture of isomers) next.
-- reply 8600 nM

-- ask And then CC(C(=O)Nc1ncccc1-n1cnc(Cn2nc(-c3ccc(Cl)cc3)n(C[C@H](O)C(F)(F)F)c2=O)n1)n1ccnc1 (stereo partly drawn) , what is it?
-- reply 1950 nM

-- ask For CC1CN(C(=O)c2ccccc2-n2cnc(Cn3nc(-c4ccc(Cl)cc4)n(C[C@H](O)C(F)(F)F)c3=O)n2)CCO1 (mixture of isomers) then?
-- reply 7500 nM

-- ask Subsequent entry: Cc1n[nH]c(C)c1NC(=O)c1ccccc1-n1cnc(Cn2nc(-c3ccc(Cl)cc3)n(C[C@H](O)C(F)(F)F)c2=O)n1
-- reply 1410 nM

-- ask Now the compound O=C(Nc1cccnc1-n1cnc(Cn2nc(-c3ccc(Cl)cc3)n(C[C@H](O)C(F)(F)F)c2=O)n1)C1CCS(=O)(=O)C1 (mixture of isomers) [Example 50]
-- reply 4370 nM
